Taken from patent US7307063B2.

TESTED_TARGET: hMC5-R (Homo sapiens, UniProt P33032)
Construct: expressed in transfected cells; host or cells: HEK-293
Sequence (P33032 whole entry): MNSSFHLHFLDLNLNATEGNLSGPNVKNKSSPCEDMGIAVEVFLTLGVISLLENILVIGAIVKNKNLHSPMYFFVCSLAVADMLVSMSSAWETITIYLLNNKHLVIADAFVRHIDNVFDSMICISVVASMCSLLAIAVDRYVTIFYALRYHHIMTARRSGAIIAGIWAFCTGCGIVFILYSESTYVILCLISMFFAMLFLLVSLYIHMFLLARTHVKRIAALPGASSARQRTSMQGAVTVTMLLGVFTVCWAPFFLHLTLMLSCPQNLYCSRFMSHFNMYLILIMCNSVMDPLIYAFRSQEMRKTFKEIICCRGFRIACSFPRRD
EXPERIMENT: Competitive binding assay: inhibition of 125I-NDP-α-MSH binding to HEK-293 membranes with cloned human receptor subtype 5
CONDITIONS: Table 6; 1 μM; mean of triplicate
Non-standard residues stand in square brackets, D forms with d. No end group written: not given here. *: point of attachment. 2Nal = N[C@@H](Cc1ccc2ccccc2c1)C(=O)O; Desaminotyrosyl = O=C(CCc1ccc(O)cc1)*; dIgl = N[C@@H](C(=O)O)C1Cc2ccccc2C1; Nle = CCCC[C@H](N)C(=O)O; Ac5c = NC1(C(=O)O)CCCC1; Ahp = NCCCCCCC(=O)O
MEASURE_NAME: % Inhibition of Binding hMC5-R (%)

Would you please look over these solved cases?
- SUBSTANCE: "Ac-Leu-His-D-Phe-Arg-Cys-Trp-NH2 ({Ac-Leu-H2N}-[dF]RCW-NH2; not fully specified; printed as Ac-Leu-His-D-Phe-Arg-Cys-Trp-NH2)"
  READING_UNIT: "%"
  % Inhibition of Binding hMC5-R: 31
- SUBSTANCE: "1-amino-1-cyclopentane carboxyl-D-Phe-Arg-Trp-Cys-NH2 ([Ac5c][dF]RWC-NH2; N-terminus assumed; SMILES N=C(N)NCCC[C@H](NC(=O)[C@@H](Cc1ccccc1)NC(=O)C1(N)CCCC1)C(=O)N[C@@H](Cc1c[nH]c2ccccc12)C(=O)N[C@@H](CS)C(N)=O)"
  READING_UNIT: "%"
  % Inhibition of Binding hMC5-R: 14
- SUBSTANCE: "Ac-Ala-Ala-Ala-D-Phe-Arg-Cys-Trp-NH2 (Ac-AAA[dF]RCW-NH2; not fully specified; printed as Ac-Ala-Ala-Ala-D-Phe-Arg-Cys-Trp-NH2)"
  READING_UNIT: "%"
  % Inhibition of Binding hMC5-R: 0

P: Amc-D-Phe-Arg-Cys-Trp-NH2
Q: 3′-(4′-Hydroxyphenyl)propionyl-HiS-D-Phe-Arg-Cys-Trp-NH2 (Desaminotyrosyl-H[dF]RCW-NH2; not fully specified; printed as 3′-(4′-Hydroxyphenyl)propionyl-HiS-D-Phe-Arg-Cys-Trp-NH2)
Among P and Q , whose measured % Inhibition of Binding hMC5-R is the smaller figure? Lab note: record the label of whichever item you select.
P
(P: 8%, Q: 21%)

a: Nal 2′-D-Phe-Arg-Cys-Trp-NH2 ([2Nal][dF]RCW-NH2; also: metal complex)
b: 7-amino-Heptanoyl-D-Igl-D-Phe-Arg-Trp-Cys-NH2 ([Ahp][dIgl][dF]RWC-NH2; not fully specified; printed as 7-amino-Heptanoyl-D-Igl-D-Phe-Arg-Trp-Cys-NH2)
Among a and b , whose measured % Inhibition of Binding hMC5-R is the smaller figure? Lab note: record the label of whichever item you select.
b

I: Hept-Ser(Bzl)-D-Phe(4′-Cl)-Arg-Trp-Cys-NH2
II: Ac-Nle-Ala-His-D-Phe-Arg-His-Cys-NH2 ({Ac-Nle-Ala-H2N}-[dF]RHC-NH2; not fully specified; printed as Ac-Nle-Ala-His-D-Phe-Arg-His-Cys-NH2)
Among I and II , whose measured % Inhibition of Binding hMC5-R is the smaller figure? Lab note: record the label of whichever item you select.
II
(II: 0%, I: 100%)

* * *

TESTED_TARGET: MC4-R (Homo sapiens, UniProt P32245)
Construct: expressed in transfected cells; host or cells: HEK-293
Sequence (P32245 whole entry): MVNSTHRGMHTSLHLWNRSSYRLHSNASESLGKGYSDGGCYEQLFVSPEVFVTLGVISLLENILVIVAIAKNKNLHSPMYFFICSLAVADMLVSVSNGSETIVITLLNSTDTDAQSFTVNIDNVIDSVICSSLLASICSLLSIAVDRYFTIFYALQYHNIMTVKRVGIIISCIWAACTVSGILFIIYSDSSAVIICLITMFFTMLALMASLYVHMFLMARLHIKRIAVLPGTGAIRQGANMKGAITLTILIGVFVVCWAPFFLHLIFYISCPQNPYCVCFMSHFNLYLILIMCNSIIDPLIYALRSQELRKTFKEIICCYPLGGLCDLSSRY
EXPERIMENT: Competitive binding assay: inhibition of 125I-NDP-α-MSH binding to HEK-293 membranes with cloned human receptor subtype 4
CONDITIONS: Table 6; 1 μM; mean of triplicate
Non-standard residues stand in square brackets, D forms with d. No end group written: not given here. *: point of attachment. Acetyl(2-naphthyl) = O=C(Cc1ccc2ccccc2c1)*; Desaminotyrosyl = O=C(CCc1ccc(O)cc1)*; dIgl = N[C@@H](C(=O)O)C1Cc2ccccc2C1; Nle = CCCC[C@H](N)C(=O)O; Ac5c = NC1(C(=O)O)CCCC1; Ahp = NCCCCCCC(=O)O
MEASURE_NAME: % Inhibition of Binding hMC4-R (%)

Would you please look over these solved cases?
- SUBSTANCE: "Naphthlyl-2-acetyl-D-Phe-Arg-Cys-Trp-NH2 ({Acetyl(2-naphthyl)}-[dF]RCW-NH2; also: metal complex)"
  RECORDED_NUMBER: 0
- SUBSTANCE: "3′-(4′-Hydroxyphenyl)propionyl-D-Phe-Arg-Cys-Trp-NH2 (Desaminotyrosyl-[dF]RCW-NH2; not fully specified; printed as 3′-(4′-Hydroxyphenyl)propionyl-D-Phe-Arg-Cys-Trp-NH2)"
  RECORDED_NUMBER: 0
- SUBSTANCE: "Ac-Nle-Ala-D-Tyr-D-Phe-Arg-Cys-Trp-NH2 (Ac-[Nle]A[dY][dF]RCW-NH2; not fully specified; printed as Ac-Nle-Ala-D-Tyr-D-Phe-Arg-Cys-Trp-NH2)"
  RECORDED_NUMBER: 1
- SUBSTANCE: "Phe-Arg-Trp-Cys-Trp-NH2 (FRWCW-NH2; not fully specified; printed as Phe-Arg-Trp-Cys-Trp-NH2)"
  RECORDED_NUMBER: 24
- SUBSTANCE: "1-amino-1-cyclopentane carboxyl-D-Phe-Arg-Trp-Cys-NH2 ([Ac5c][dF]RWC-NH2; N-terminus assumed; SMILES N=C(N)NCCC[C@H](NC(=O)[C@@H](Cc1ccccc1)NC(=O)C1(N)CCCC1)C(=O)N[C@@H](Cc1c[nH]c2ccccc12)C(=O)N[C@@H](CS)C(N)=O)"
  RECORDED_NUMBER: 0
- SUBSTANCE: "Ac-Nle-Ala-His-D-Phe-Arg-D-Nal 1′-Cys-NH2"
  RECORDED_NUMBER: 47
- SUBSTANCE: "Idc-D-Phe-Arg-Trp-Cys-NH2"
  RECORDED_NUMBER: 11
- SUBSTANCE: "D-Igl-D-Nal 2′-Arg-Trp-Cys-NH2"
  RECORDED_NUMBER: 97
- SUBSTANCE: "7-amino-Heptanoyl-D-Igl-D-Phe-Arg-Trp-Cys-NH2 ([Ahp][dIgl][dF]RWC-NH2; not fully specified; printed as 7-amino-Heptanoyl-D-Igl-D-Phe-Arg-Trp-Cys-NH2)"
  RECORDED_NUMBER: 5
- SUBSTANCE: "1-amino-1-cyclopentane carboxyl-D-Phe-Arg-Cys-Trp-NH2 ([Ac5c][dF]RCW-NH2; N-terminus assumed; SMILES N=C(N)NCCC[C@H](NC(=O)[C@@H](Cc1ccccc1)NC(=O)C1(N)CCCC1)C(=O)N[C@@H](CS)C(=O)N[C@@H](Cc1c[nH]c2ccccc12)C(N)=O)"
  RECORDED_NUMBER: 16

I: Heptanoyl-Ser(Bzl)-D-Nal 2′-Arg-Trp-Cys-Lys-NH2
II: Ser(Bzl)-D-Phe-Arg-Trp-Cys-NH2 ({Ser(Bzl)}-[dF]RWC-NH2; also: metal complex)
Among I and II , whose measured % Inhibition of Binding hMC4-R is the smaller figure? Lab note: record the label of whichever item you select.
II

* * *

TESTED_TARGET: MC4-R (Homo sapiens)
Construct: expressed in transfected cells; host or cells: HEK-293
EXPERIMENT: Competitive binding assay: inhibition of 125I-NDP-α-MSH binding to HEK-293 membranes with cloned human receptor subtype 4
CONDITIONS: Table 6; 1 μM; mean of triplicate
Non-standard residues stand in square brackets, D forms with d. No end group written: not given here. 2Nal = N[C@@H](Cc1ccc2ccccc2c1)C(=O)O
MEASURE_NAME: % Inhibition of Binding hMC4-R (%)

Would you please look over these solved cases?
- SUBSTANCE: "Allo-Thr-D-Phe-Arg-Trp-Cys-NH2"
  TESTED_TARGET: "MC4-R (Homo sapiens)"
  READING_UNIT: "%"
  % Inhibition of Binding hMC4-R: 22
- SUBSTANCE: "Nal 2′-D-Phe-Arg-Cys-Trp-NH2 ([2Nal][dF]RCW-NH2; also: metal complex)"
  TESTED_TARGET: "MC4-R (Homo sapiens)"
  READING_UNIT: "%"
  % Inhibition of Binding hMC4-R: 21
- SUBSTANCE: "Tic-D-Phe(3′-Cl)-Arg-Trp-Cys-NH2"
  TESTED_TARGET: "MC4-R (Homo sapiens)"
  READING_UNIT: "%"
  % Inhibition of Binding hMC4-R: 62

A: Hept-Ser(Bzl)-D-Phe(4′-Cl)-Arg-Trp-Cys-NH2
B: Aic-D-Phe-Arg-Trp-Cys-NH2
Lab note: check whether A or B shows the higher recorded % Inhibition of Binding hMC4-R. Lab note: record the label of whichever item you select.
A
(A: 88%, B: 18%)

1: D-Nal 2′-D-Phe-Arg-Cys-Trp-NH2
2: Ac-Nle-Ala-His-D-Phe-Arg-Nal 1′-Cys-NH2
Among 1 and 2 , whose measured % Inhibition of Binding hMC4-R is the smaller figure? Lab note: record the label of whichever item you select.
1
